// provenance: patent US12152016B2

Quick reference: CYP1A1 induction (% of ITE ± SEM) of the listed items.
tested on: AHR-dependent transcription of the CYP1A1 gene; assay: CYP1A1 induction in mouse macrophages; assay type: cell-based; conditions: 50 nM
Reported Property: CYP1A1 induction (% of ITE ± SEM)

>>> result("COc1cccc(C(=O)c2n[nH]c3ccccc23)c1 [reference compound]")
"1 ± 0.2 % of ITE"
>>> result("COC(=O)c1cccc(C(=O)c2c[nH]c3c2ccc2ccccc23)n1")
"57 ± 5 % of ITE"
>>> result("COC(=O)c1csc(C(=O)c2c[nH]c3ccccc23)n1 [ITE, reference compound]")
"100 % of ITE"
>>> result("CC(C)OC(=O)c1cccc(C(=O)c2c[nH]c3ccccc23)n1")
"22 ± 11 % of ITE"
>>> result("COC(=O)c1ccccc1C(=O)c1c[nH]c2ccccc12")
"10 ± 7 % of ITE"
>>> result("COC(=O)c1cccc(C(=O)c2c[nH]c3ccc(Cl)cc23)n1")
"150 ± 36 % of ITE"
>>> result("N#Cc1cccc(C(=O)c2c[nH]c3ccccc23)n1")
"33 ± 3 % of ITE"
>>> result("COc1cccc(C(=O)c2c[nH]c3ccccc23)n1")
"168 ± 86 % of ITE"
>>> result("COC(=O)c1cccc(C(=O)c2cn(C)c3ccccc23)n1")
"29 ± 10 % of ITE"
>>> result("COc1cccc(C(=O)c2c[nH]c3ccccc23)c1")
"9 ± 5 % of ITE"

###

molecular target: aryl hydrocarbon receptor (AHR) (Mus musculus, UniProt P30561); construct: Transfection was performed with 150 ng XRE-luciferase plasmid (Promega); endogenous in cells; test: XRE-driven luciferase reporter assay, mouse Hepa1c1c7
Sequence (P30561 10-805 limits assumed): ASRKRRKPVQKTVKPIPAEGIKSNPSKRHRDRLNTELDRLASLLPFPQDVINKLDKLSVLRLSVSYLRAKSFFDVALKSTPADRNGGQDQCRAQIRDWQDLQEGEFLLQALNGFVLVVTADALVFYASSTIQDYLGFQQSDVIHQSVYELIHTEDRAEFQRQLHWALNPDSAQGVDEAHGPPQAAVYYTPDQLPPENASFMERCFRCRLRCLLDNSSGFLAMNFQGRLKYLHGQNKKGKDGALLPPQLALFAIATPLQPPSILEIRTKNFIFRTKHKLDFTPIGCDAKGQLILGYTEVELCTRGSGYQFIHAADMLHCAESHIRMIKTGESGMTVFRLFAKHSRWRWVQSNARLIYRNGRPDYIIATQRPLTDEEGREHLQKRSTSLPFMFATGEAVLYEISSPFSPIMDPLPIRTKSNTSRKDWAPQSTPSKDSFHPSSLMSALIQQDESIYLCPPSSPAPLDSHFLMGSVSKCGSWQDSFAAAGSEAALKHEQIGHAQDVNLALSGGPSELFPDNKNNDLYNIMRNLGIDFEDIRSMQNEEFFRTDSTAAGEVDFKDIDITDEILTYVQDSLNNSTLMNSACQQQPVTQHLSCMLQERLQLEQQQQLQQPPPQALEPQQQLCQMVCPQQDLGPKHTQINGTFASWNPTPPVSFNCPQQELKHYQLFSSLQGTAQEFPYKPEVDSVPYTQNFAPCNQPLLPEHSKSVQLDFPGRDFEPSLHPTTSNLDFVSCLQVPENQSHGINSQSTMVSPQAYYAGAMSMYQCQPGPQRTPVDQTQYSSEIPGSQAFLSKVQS
Sequence (P53762 whole entry partner): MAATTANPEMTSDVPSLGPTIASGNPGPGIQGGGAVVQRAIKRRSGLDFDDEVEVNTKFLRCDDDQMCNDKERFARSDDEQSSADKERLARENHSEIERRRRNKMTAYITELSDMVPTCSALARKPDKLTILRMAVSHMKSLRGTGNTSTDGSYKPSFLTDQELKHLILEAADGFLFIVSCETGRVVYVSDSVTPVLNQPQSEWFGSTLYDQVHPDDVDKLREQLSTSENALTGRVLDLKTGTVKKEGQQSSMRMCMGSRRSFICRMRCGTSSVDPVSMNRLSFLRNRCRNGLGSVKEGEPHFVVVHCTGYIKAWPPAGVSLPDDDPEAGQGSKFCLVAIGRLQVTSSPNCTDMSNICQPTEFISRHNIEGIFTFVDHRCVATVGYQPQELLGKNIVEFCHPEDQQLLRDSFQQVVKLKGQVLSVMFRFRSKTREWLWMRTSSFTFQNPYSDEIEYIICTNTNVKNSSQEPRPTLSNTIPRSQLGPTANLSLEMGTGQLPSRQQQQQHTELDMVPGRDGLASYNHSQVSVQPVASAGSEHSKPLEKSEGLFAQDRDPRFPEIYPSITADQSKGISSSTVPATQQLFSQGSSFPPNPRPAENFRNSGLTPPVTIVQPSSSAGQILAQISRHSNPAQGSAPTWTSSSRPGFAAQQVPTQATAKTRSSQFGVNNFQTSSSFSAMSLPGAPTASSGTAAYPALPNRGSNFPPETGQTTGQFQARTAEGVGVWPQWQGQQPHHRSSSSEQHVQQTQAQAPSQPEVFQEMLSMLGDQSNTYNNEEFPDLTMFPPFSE
Reported Property: EC50 (nM)

>>> result_number("COC(=O)c1csc(C(=O)c2c[nH]c3ccccc23)n1 [ITE, reference compound]")
30
>>> result_number("N#Cc1cccc(C(=O)c2c[nH]c3ccccc23)n1 [Compound 108]")
94

###

Quick reference: EC50 of the listed items.
target: aryl hydrocarbon receptor (AHR) (Homo sapiens); experiment: XRE-driven luciferase reporter assay, human HepG2; conditions: XRE luciferase EC50, Human HepG2; least square curve fitting; >10,000 = does not reach 50% of Emax of ITE at 10 μM (highest concentration tested)
Sequence (P35869 11-848): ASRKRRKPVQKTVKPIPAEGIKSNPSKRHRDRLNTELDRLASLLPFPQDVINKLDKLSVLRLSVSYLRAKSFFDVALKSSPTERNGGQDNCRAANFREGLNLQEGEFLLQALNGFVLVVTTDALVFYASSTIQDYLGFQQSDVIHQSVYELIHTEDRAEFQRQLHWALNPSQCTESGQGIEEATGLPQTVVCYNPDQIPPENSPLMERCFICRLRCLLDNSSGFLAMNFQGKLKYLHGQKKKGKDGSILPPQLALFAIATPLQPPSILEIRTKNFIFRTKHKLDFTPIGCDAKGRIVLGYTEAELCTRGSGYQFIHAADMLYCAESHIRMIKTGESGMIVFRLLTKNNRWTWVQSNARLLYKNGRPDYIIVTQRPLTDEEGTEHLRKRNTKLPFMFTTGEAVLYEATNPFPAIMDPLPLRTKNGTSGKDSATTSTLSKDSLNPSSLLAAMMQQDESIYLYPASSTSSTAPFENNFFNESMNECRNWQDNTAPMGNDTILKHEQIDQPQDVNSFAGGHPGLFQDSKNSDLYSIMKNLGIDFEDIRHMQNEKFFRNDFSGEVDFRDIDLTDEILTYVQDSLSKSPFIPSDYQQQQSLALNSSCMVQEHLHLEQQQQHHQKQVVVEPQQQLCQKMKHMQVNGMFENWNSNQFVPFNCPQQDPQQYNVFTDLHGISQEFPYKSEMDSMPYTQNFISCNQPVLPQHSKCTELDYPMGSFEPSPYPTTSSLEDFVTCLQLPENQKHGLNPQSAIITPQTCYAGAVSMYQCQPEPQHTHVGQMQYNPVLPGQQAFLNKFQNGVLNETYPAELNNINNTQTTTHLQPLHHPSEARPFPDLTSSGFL
Reported Property: EC50 (nM)

>>> result_number("O=C(c1cccc(-c2ccccc2)n1)c1c[nH]c2ccccc12")
12
>>> result_number("COC(=O)c1cccc(C(=O)c2c[nH]c3ncccc23)n1")
18
>>> result_number("COC(=O)c1cccc(C(=O)c2c[nH]c3ccc(OC)cc23)n1")
1800
>>> result_number("COC(=O)c1cccc(C(=O)c2c[nH]c3ccc(Cl)cc23)n1")
7.6
>>> result_number("COC(=O)c1cccc(C(=O)c2cn(C)c3ccccc23)n1")
190
>>> result_number("COC(=O)c1cccc(C(=O)c2c[nH]c3ccc(Br)cc23)n1")
6.2

###

tested on: AHR-dependent transcription of the CYP1A1 gene; assay: CYP1A1 induction in human U937 cells; type: cell-based; conditions: Human U937, 1 μM
Quick reference: CYP1A1 induction (% of ITE ± SEM) of the listed items.
Reported Property: CYP1A1 induction (% of ITE ± SEM)

>>> result("COC(=O)c1cccc(C(=O)c2n[nH]c3ccccc23)c1 [reference compound]")
"48 ± 6 % of ITE"
>>> result("COC(=O)c1cccc(C(=O)c2c(C)[nH]c3ccccc23)n1")
"29 ± 14 % of ITE"
>>> result("COc1cccc(C(=O)c2c[nH]c3ccccc23)c1")
"101 ± 12 % of ITE"
>>> result("COc1cccc(C(=O)c2c[nH]c3ccccc23)n1")
"165 ± 27 % of ITE"
>>> result("COC(=O)c1csc(C(=O)c2c[nH]c3ccccc23)n1 [ITE, reference compound]")
"100 % of ITE"
>>> result("COC(=O)c1cccc(C(=O)c2c[nH]c3ccccc23)c1 [Compound 202, methyl 3-(1H-indole-3-carbonyl)benzoate]")
"3 ± 1 % of ITE"
>>> result("COC(=O)c1ccc(C(=O)c2c[nH]c3ccccc23)s1")
"244 ± 28 % of ITE"
